Where these numbers come from: patent US11976098B2

test system: α-glucosidase; experiment: In vitro α-glucosidase inhibitory activity (PNPG, 405 nm); assay type: biochemical; conditions: sample 0.5%, 37° C., pH 6.8
endpoint label: α-glucosidase inhibition rate

• AGAGPQGRP (The sequence is synthetized) [SEQ ID NO: 2, small peptide screened from cooked millet prolamin] = 31.57%
• QQQQLLR (The sequence is synthetized) [SEQ ID NO: 4, small peptide screened from cooked millet prolamin] = 15.94%
• FALQGAAFLGSA (The sequence is synthetized) [SEQ ID NO: 3, small peptide screened from cooked millet prolamin] = 17.67%
• KAHAALGAK (The sequence is synthetized) [SEQ ID NO: 6, small peptide screened from cooked millet prolamin] = 13.77%
• KTGSGAEGMHGGK (The sequence is synthetized) [SEQ ID NO: 5, small peptide screened from cooked millet prolamin] = 15.64%
• QQLRPF (The sequence is synthetized) [SEQ ID NO: 1, small peptide screened from cooked millet prolamin] = 32.67%
